Target System: Gonadotropin-releasing hormone receptor (Homo sapiens)
Assay Notes: Human gonadotropin-releasing hormone receptor (GnRHR) small molecule agonists, calcium flux assay in GnRHR-HEK293 cells (AID 1920063); further: nearly all actives have a fitted effect of over 35% in size
Run Conditions: calcium flux fluorescence, agonist mode; series mostly up to 57.6 µM
Activity calls are given as the source filed them. The call rests on the fitted dose curve.
Readout Kind: outcome

In the examples that follow, each entry is paired with its recorded outcome.
[[record]]
molecule = "CCOC(=O)C(C)OC(=O)c1cc(Oc2ccc(C(F)(F)F)cc2Cl)ccc1[N+](=O)[O-] (centres undefined)"
observed = "inactive"

[[record]]
molecule = "c1ccc(Nc2ccc3ccccc3c2)cc1"
observed = "inactive"

[[record]]
molecule = "CCCCC(C#N)(Cn1cncn1)c1ccc(Cl)cc1 (centres undefined)"
observed = "inactive"

[[record]]
molecule = "CNC(=O)Oc1cccc2c1OC(C)(C)O2"
observed = "inactive"

[[record]]
molecule = "CCC1(c2ccc(N)cc2)CCC(=O)NC1=O (centres undefined)"
observed = "inactive"


Dear reader, for each entry below, please note its outcome.
1. ClCC(Br)CBr (centres undefined)
2. Clc1ccccc1Cl
3. COC(=O)c1ccccc1N
4. CC12CC1(C)C(=O)N(c1cc(Cl)cc(Cl)c1)C2=O (centres undefined)
5. O=S(=O)(O)O

1: inactive; 2: inactive; 3: inactive; 4: inactive; 5: inactive

---

Assay Notes: p53 small molecule agonists, cell-based qHTS assay with rat liver microsomes: qHTS cell viability counter screen (AID 1963580); further: nearly all actives have a fitted effect of over 45% in size
Run Conditions: p53RE-bla HCT-116 + rat microsomes, ATP viability, 16 h; series mostly up to 66 µM
Records with an inconclusive call do not appear. The source made the active and inactive calls. Calls follow the shape of the full dose curve.
Would you mind answering with one of these outcomes? active, inactive

[[record]]
compound = "O=C(CCl)c1ccccc1"
label_value = "inactive"


// outcome(item) with item = `N#CCC#N` inactive

Could you kindly confirm the outcome this assay logged for `CCCN(CCOc1c(Cl)cc(Cl)cc1Cl)C(=O)n1ccnc1` ? inactive

Per the assay record, what outcome was assigned to `CC(Cl)Cl` ? inactive

Status in this test for CC(C)(C)C(O)(CCc1ccc(Cl)cc1)Cn1cncn1 (configuration not stated) ? inactive

Assay outcome for `Cc1ccc([N+](=O)[O-])cc1C` : what was it? inactive

Please state the recorded outcome for this compound: CN1C(=O)NC(=O)C(C)(C2=CCCCC2)C1=O (configuration not stated) inactive

Test call, this compound: `CSc1nnc(C(C)(C)C)c(=O)n1N` inactive

GET /call?item= `c1ccoc1` returns the recorded outcome of this test. inactive

// param item: `CCn1cc[n+](C)c1C` ; yields the recorded call inactive

---

Target System: 5-hydroxytryptamine receptor 2A (Homo sapiens) (UniProt P28223)
Sequence (P28223 whole entry, looked up): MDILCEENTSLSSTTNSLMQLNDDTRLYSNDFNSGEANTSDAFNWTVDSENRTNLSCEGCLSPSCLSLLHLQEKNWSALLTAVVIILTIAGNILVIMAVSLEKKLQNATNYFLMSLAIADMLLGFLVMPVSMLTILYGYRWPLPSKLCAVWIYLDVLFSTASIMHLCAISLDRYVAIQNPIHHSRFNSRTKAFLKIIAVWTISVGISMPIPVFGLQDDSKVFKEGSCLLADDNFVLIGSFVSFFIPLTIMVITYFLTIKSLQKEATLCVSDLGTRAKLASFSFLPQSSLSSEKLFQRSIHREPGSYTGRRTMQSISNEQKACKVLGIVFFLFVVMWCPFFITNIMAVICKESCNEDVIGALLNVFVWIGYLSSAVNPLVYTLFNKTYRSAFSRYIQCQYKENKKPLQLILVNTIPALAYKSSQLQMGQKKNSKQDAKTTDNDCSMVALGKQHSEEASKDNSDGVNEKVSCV
Assay Notes: 5-hydroxytryptamine receptor 2A (HTR2A) small molecule antagonists, cell-based qHTS assay (AID 1963586); further: nearly all actives have a fitted effect of over 45% in size
Run Conditions: HTR2A-CHO cells, DOI-induced calcium flux, fluorescence; series mostly up to 61.5 µM
Inconclusive results are not listed. Active and inactive are the calls of the source. Calls come from the whole dose curve.
Readout Kind: outcome

Solved cases (8 shown):
[[record]]
compound = "OCCN(CCO)CCO"
observed = "inactive"

[[record]]
compound = "ClC1=C(Cl)[C@]2(Cl)[C@@H]3[C@@H](Cl)[C@H](Cl)C[C@@H]3[C@@]1(Cl)C2(Cl)Cl"
observed = "inactive"

[[record]]
compound = "C=CCOCC1CO1 (configuration not stated)"
observed = "inactive"

[[record]]
compound = "CC(C)(c1ccc(OCC2CO2)cc1)c1ccc(OCC2CO2)cc1 (configuration not stated)"
observed = "inactive"

[[record]]
compound = "[O]=[Cr](=[O])([OH])[O][Cr](=[O])(=[O])[OH]"
observed = "inactive"

[[record]]
compound = "CC(C)(Cl)Cl"
observed = "inactive"

[[record]]
compound = "Cl/C=C\\CCl"
observed = "inactive"

[[record]]
compound = "CCC(C)C(C)(COC(N)=O)COC(N)=O (configuration not stated)"
observed = "inactive"


I need outcome for every entry listed below, if you could help.
1. CN(N=O)C(N)=O
2. CN=C=S
3. CCCN(CCOc1c(Cl)cc(Cl)cc1Cl)C(=O)n1ccnc1
4. CCCCCCCCCCCCCCCC[N+](C)(C)C
5. O=C(Cl)CCl
6. CCN(N=O)C(N)=O
7. Nc1ccc([As](=O)(O)O)cc1

inactive
inactive
inactive
inactive
inactive
inactive
inactive

Please give outcome, item by item, for the list that follows.
1. O=[N+]([O-])c1ccc(Cl)c([N+](=O)[O-])c1
2. CC(C)NC(C)C

["inactive", "inactive"]

Can you give me outcome for all of these, one by one?
1. CCN(CC)CCO
2. CC(C)(C)C(=O)C(Cl)Cl
3. C=CCc1ccccc1O
4. COc1cc(OC)nc(NC(=O)NS(=O)(=O)c2ncccc2C(=O)N(C)C)n1

1: inactive; 2: inactive; 3: inactive; 4: inactive

---

Assay Notes: Nuclear factor erythroid 2-related factor 2/antioxidant responsive element (Nrf2/ARE) small molecule agonists: luciferase reporter gene qHTS assay in human keratinocytes (AID 1919969); further: nearly all actives have a fitted effect of over 35% in size
Run Conditions: KeratinoSens HaCaT ARE-luciferase, luminescence, 24 h; series mostly up to 92.4 µM
Results filed as inconclusive are left out. Calls of active or inactive are those of the source. Calls come from the whole dose curve.
A correct response names exactly one class from Y for active, N for inactive

Look over these answered cases.
[[record]]
compound = "N#Cc1cc([N+](=O)[O-])ccc1N"
label_value = "N"

[[record]]
compound = "NC(=O)OCCCc1ccccc1"
label_value = "N"

[[record]]
compound = "COC(=O)[C@@H](N)CCCN/C(N)=N/[N+](=O)[O-]"
label_value = "N"

[[record]]
compound = "CNC(=O)N(C)c1nnc(C(C)(C)C)s1"
label_value = "N"

[[record]]
compound = "CCOC(=O)C1OC1(C)c1ccccc1 (stereo unspecified)"
label_value = "N"

[[record]]
compound = "CCC(C)(CC)c1cc(NC(=O)c2c(OC)cccc2OC)on1"
label_value = "N"

[[record]]
compound = "CCOc1nc(F)cc2nc(S(=O)(=O)Nc3c(Cl)cccc3Cl)nn12"
label_value = "N"

[[record]]
compound = "Cc1cnc[nH]1"
label_value = "N"


Would you mind telling me which call this test gave `CCC(=O)O[C@H]1CC[C@H]2[C@@H]3CCC4=CC(=O)CC[C@]4(C)[C@H]3CC[C@]12C` ? N

Fill in: this test's call for CC(C)(C)C(O)(CCc1ccc(Cl)cc1)Cn1cncn1 (stereo unspecified) is ___ N

Recorded call for `Cc1ccc2c(C)cccc2c1` ? N

Recorded test outcome, item CNC(=O)O/N=C/C(C)(C)S(C)=O (stereo unspecified) N

Just curious, what result did `N#Cc1cccnc1` get here? N

Could you please tell me the result logged for `ClCC(Cl)CCl` in this assay? N

Hey, what did the test say about `CCCBr` ? N

---

Target System: Muscarinic acetylcholine receptor M1 (Homo sapiens) (UniProt P11229)
Sequence (P11229 whole entry, looked up): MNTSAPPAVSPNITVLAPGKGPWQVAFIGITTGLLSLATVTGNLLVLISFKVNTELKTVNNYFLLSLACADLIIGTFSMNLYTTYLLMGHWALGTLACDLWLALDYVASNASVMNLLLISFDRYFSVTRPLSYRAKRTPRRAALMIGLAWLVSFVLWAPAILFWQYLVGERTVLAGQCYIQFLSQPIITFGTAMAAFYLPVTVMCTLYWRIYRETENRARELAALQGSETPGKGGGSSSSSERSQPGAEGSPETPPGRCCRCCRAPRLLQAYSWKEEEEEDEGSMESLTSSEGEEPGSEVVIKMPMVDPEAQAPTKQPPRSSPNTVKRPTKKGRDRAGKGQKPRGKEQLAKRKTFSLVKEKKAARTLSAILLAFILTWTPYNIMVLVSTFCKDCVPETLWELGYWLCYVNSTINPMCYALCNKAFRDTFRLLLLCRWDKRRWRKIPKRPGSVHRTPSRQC
Assay Notes: Cholinergic receptor muscarinic 1 (CHRM1) small molecule antagonists, cell-based qHTS assay (AID 1963588); further: nearly all actives have a fitted effect of over 40% in size
Run Conditions: CHRM1-CHO antagonist mode, calcium flux fluorescence; series mostly up to 61.5 µM
Inconclusive results are not listed. Activity calls are given as the source filed them. Calls come from the whole dose curve.
Bench note: report the call from active, inactive

The examples below pair each entry with its known result.
[[record]]
molecule = "N#CCC#N"
label_value = "inactive"

[[record]]
molecule = "C=C(C)CCl"
label_value = "inactive"


Fill in: this test's call for `CCCCCBr` is ___ inactive

Hello, I am checking results. What call was entered for CC(C)=CC1C(C(=O)OCN2C(=O)C3=C(CCCC3)C2=O)C1(C)C (stereo not given) ? active

Call for entry `Nc1ccc(-c2ccc(N)c(N)c2)cc1N` : inactive

Can you look up the reported call for `ClCC(Cl)CCl` for me? inactive

Per the assay record, what outcome was assigned to `Cc1cccc(N=Nc2ccc(N(C)C)cc2)c1` ? inactive

For this molecule, state the assay outcome: C[C@H]1O[C@H](OC2[C@@H](O)[C@@H](O)C(O)[C@H](O)[C@H]2O)[C@@H](N)C[C@@H]1N=C(N)C(=O)O (stereo not given in full) inactive

Kindly provide the recorded test outcome for the following molecule: `COC(=O)c1sccc1S(=O)(=O)NC(=O)Nc1nc(C)nc(OC)n1` inactive

---

Assay Notes: Nuclear factor erythroid 2-related factor 2/antioxidant responsive element (Nrf2/ARE) small molecule agonists: qHTS cell viability counter screen in human keratinocytes (AID 1919968); further: nearly all actives have a fitted effect of over 55% in size
Run Conditions: KeratinoSens HaCaT ARE cells viability, CellTiter-Fluor, 24 h; series mostly up to 92.4 µM
Records with an inconclusive call do not appear. Active and inactive are the calls of the source. Calls come from the whole dose curve; as a rule, active = well fitted cell-killing curve with a large enough effect in the repeat runs; inconclusive = weak or mixed curves, or effect the other way; inactive = flat fitted curve, though single readings scatter.
Readout Kind: outcome

Here's what some known entries look like.
[[record]]
compound = "N#CC(Cl)Cl"
observed = "inactive"

[[record]]
compound = "Cn1c(-c2ccccc2)cc(-c2ccccc2)[n+]1C"
observed = "inactive"

[[record]]
compound = "C=CCCC#N"
observed = "inactive"

[[record]]
compound = "c1ccc2c(c1)Nc1ccccc1S2"
observed = "inactive"

[[record]]
compound = "CC(C)(C)C(=O)CCl"
observed = "inactive"

[[record]]
compound = "CN=C=S"
observed = "inactive"

[[record]]
compound = "NC(=S)Nc1ccccc1"
observed = "inactive"

[[record]]
compound = "CCNCC"
observed = "inactive"


Turning now to a further record.
Which outcome reading was recorded for the compound `CCCCOC(=O)c1ccccc1C(=O)O` ? inactive
